System: RSV (Long)
assay-details: RSV cytopathic effect (CPE)-based viral replication assay
Assay type: cell-based, respiratory syncytial virus (RSV)
experimental-setup: human respiratory syncytial virus, HEp-2, 72 h, HEp-2 cells infected with RSV Long at MOI 0.015; 3 days at 37° C.; cell viability by CellTiter-Glo luminescence; read-out: EC50 (nm)
Please go through the items and note down their EC50.
Numbers only here, please. The scale is nM.

Qu. So what does the record say about EC50 for CNC1(C(=O)N2CCC3(CC2)C(=O)N(Cc2ncc4ccccc4c2-c2ccc(C#N)nc2)c2cnccc23)CC1 [Example 67] ?
Ans. 8.2

Qu. Try this compound next: CS(=O)(=O)N1CC2(C1)C(=O)N(Cc1ncc3ccccc3c1-c1ccc(F)c(F)c1)c1ccccc12 [Example 75]
Ans. 7.1

Qu. Try this compound next: CS(=O)(=O)N1CCC2(CC1)C(=O)N(Cc1ncc3ccccc3c1-c1ccc(C(N)C(F)(F)F)nc1)c1cnccc12 (stereo not drawn) [Example 158c]
Ans. 3

Qu. Try this compound next: O=C(N1CCOCC1)N1CC2(C1)C(=O)N(Cc1ncc3ccccc3c1-c1cccnc1)c1ccccc12 [Example 148b]
Ans. 7.2

Qu. Try this compound next: O=c1n(Cc2ncc3ccccc3c2COCC(F)(F)F)c2cnccc2n1C1CC1 [Example 127]
Ans. 690

Qu. Try this compound next: CNC(=O)O[C@H]1C[C@@]2(C1)C(=O)N(Cc1ncc3ccccc3c1-c1ccc(C#N)nc1)c1ccccc12 [Example 133]
Ans. 3.4

* * *

Tested on: RSV (Long)
assay-details: RSV cytopathic effect (CPE)-based viral replication assay
Type: cell-based, respiratory syncytial virus (RSV)
experimental-setup: human respiratory syncytial virus, HEp-2, 72 h, HEp-2 cells infected with RSV Long at MOI 0.015; 3 days at 37° C.; cell viability by CellTiter-Glo luminescence; read-out: EC50 (nm)
experimental-readout: EC50
Numeric answer plus unit only.

Qu. So what does the record say about EC50 for COC(=O)C1CC2(C1)C(=O)N(Cc1ncc3ccccc3c1-c1ccc(C3(N)CC3)nc1)c1cnccc12 (stereo not drawn) ?
Ans. 5.4 nM

Qu. Try this compound next: COC(=O)NC1CC2(C1)C(=O)N(Cc1ncc3ccccc3c1-c1ccc(C#N)nc1)c1ccccc12 (stereo not drawn)
Ans. 7.2 nM

Qu. Try this compound next: N#Cc1ccc(-c2c(CN3C(=O)C4(CN(C(=O)C5(N)CC5)C4)c4ccccc43)ncc3ccccc23)cn1 [Example 60c]
Ans. 25 nM

* * *

Tested on: RSV (Long)
assay-details: RSV cytopathic effect (CPE)-based viral replication assay
Format: cell-based, respiratory syncytial virus (RSV)
experimental-setup: human respiratory syncytial virus, HEp-2, 72 h, HEp-2 cells infected with RSV Long at MOI 0.015; 3 days at 37° C.; cell viability by CellTiter-Glo luminescence; read-out: EC50 (nm)
experimental-readout: pEC50
Lab note — pEC50 values are minus log10 of concentrations in M.

Qu. So what does the record say about pEC50 for CS(=O)(=O)N1CCC2(CC1)C(=O)N(Cc1ncc3ccccc3c1-c1ccc(C3(N)COC3)nc1)c1cnccc12 [Example 2038] ?
Ans. 7.96

Qu. Try this molecule next: O=c1n(Cc2ncc3ccccc3c2-c2ccc(O)nc2)c2ccccc2n1C1CC1 [Example 88]
Ans. 8.07

Qu. Try this molecule next: CNC1(C(=O)N2CC3(C2)C(=O)N(Cc2ncc4ccccc4c2-c2ccc(C(N)=O)nc2)c2ccccc23)CC1 [Example 115c]
Ans. 7.82

Qu. Try this molecule next: O=c1n(Cc2ncc3ccccc3c2CCCCO)c2cnccc2n1S(=O)(=O)C1CC1 [Example 22b]
Ans. 7.82
